- Test system: IGROV1 ovarian
- experiment_description: NCI-60 one-dose screen, 48 h (100 = growth as untreated, 0 = no growth, -100 = all killed)
- applied_conditions: 10 µM unless noted
The panel holds about 83,000 compounds, 20% with a hit somewhere; the sample as a whole holds those more often.
I'd appreciate it if you marked entries 1 when growth is lower than 60% and -1 when it is not.

COc1cc2nc(-c3ccc(C(F)(F)F)cc3)cc(OCCCNCC3CCCO3)c2cc1OC (configuration not stated); 1
COc1ccc(/C=C2\SC(=Nc3cc(C)on3)NC2=O)cc1; -1
COc1ccc(COc2ccc(/C=C3/C(=O)Nc4cc(Cl)ccc43)cc2)cc1; -1
N/C(=N\c1nc2c(Cl)cc(Cl)cc2s1)C(Cl)(Cl)Cl; 1
O=C(CSc1nc2sc3c(c2c(=O)n1-c1ccc(Cl)cc1)CCCC3)N/N=C/c1ccc(F)cc1; -1

Request: Report whether reported growth is lower than 60% (strictly) for `CCOC(=O)c1sc(N)c(C(=O)OCC)c1C`
Response: 1

Request: Report whether reported growth is lower than 60% (strictly) for `CC(=O)Oc1ccccc1C(=O)Nc1ccc(C(=O)/C=C/c2ccncc2)cc1`
Response: 1

Source: PubChem BioAssay (NCI)
